Target: T1, TLR8 WT (hTLR8) (human, UniProt Q9NR97 27-827)
T1 sequence: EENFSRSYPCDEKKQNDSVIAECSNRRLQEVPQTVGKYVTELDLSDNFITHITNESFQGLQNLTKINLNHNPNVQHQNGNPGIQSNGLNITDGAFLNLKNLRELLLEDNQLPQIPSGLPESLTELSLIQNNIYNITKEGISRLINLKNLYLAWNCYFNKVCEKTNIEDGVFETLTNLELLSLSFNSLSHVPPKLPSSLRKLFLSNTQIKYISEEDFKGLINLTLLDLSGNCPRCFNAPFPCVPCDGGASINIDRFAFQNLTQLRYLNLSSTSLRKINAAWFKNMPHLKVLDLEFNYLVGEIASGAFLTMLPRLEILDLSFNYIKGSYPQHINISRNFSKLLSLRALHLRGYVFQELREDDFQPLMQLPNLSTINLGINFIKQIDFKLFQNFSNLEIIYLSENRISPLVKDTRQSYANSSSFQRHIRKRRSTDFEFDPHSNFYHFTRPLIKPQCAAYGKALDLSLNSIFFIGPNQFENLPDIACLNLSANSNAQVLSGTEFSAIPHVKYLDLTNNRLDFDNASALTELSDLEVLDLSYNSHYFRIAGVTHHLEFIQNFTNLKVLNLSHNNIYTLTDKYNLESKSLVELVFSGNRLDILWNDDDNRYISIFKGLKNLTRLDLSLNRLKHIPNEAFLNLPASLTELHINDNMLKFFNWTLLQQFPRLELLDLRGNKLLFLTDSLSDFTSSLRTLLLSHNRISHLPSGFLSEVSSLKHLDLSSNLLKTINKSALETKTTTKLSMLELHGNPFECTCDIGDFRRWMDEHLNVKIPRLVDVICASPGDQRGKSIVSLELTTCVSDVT
Test: SPR; mean computed from runs 1.8±0.2, 1.8±0.2, 1.5±0.2; SPR with recombinant TLR7/TLR8; buffer, pH and temperature not in the material
Details: protein: recombinant; chain copies: 2; single-stranded
pKd: −log10 of the molar value.
value type: pKd

[[record]]
binder = "GAA (XNA, 2'-OMe G1, RNA A2 A3; phosphorothioate linkages, stereo-random) [mGrArA PS]"
recorded_value = 5.77

